Just for reference, patent US20250195498A1 is where these values come from.

Measured alpha = Kiu/Kic values are reported for all entries that follow.
# TARGET UNDER TEST: PNP from H. pylori strain 26695 (Helicobacter pylori)
# Construct: made in house; host or cells: E. coli
# Sequence (P56463 whole entry): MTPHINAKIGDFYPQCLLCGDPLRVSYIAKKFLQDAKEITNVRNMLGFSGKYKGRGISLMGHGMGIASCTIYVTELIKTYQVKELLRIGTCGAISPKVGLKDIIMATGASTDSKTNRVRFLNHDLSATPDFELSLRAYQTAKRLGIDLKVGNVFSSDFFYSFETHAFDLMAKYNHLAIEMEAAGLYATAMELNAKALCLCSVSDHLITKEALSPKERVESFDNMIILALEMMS
# MEASUREMENT NOTES: Inhibition of PNP from H. pylori, spectrophotometric phosphorolysis assay
# Assay type: biochemical
# DETAILS: 7-methylguanosine substrate; mixed type model

{"INPUT SMILES": "Clc1nc(Cl)c2[nH]cnc2n1", "alpha = Kiu/Kic": 1.17}
{"INPUT SMILES": "OC[C@H]1O[C@@H](n2cnc3c(SCc4ccccc4)nc(Cl)nc32)C[C@@H]1O", "alpha = Kiu/Kic": 0.47}
{"INPUT SMILES": "Clc1nc(OCc2ccccc2)c2[nH]cnc2n1", "alpha = Kiu/Kic": 0.25}
{"INPUT SMILES": "c1ccc(CSc2ncnc3nc[nH]c23)cc1", "alpha = Kiu/Kic": 1.07}
{"INPUT SMILES": "Clc1nc(SCc2ccccc2)c2[nH]cnc2n1", "alpha = Kiu/Kic": 0.16}
